Recorded measurements of IC50, one per entry
Target: human TLR8 (Homo sapiens, UniProt Q9NR97)
Sequence (Q9NR97 27-1041): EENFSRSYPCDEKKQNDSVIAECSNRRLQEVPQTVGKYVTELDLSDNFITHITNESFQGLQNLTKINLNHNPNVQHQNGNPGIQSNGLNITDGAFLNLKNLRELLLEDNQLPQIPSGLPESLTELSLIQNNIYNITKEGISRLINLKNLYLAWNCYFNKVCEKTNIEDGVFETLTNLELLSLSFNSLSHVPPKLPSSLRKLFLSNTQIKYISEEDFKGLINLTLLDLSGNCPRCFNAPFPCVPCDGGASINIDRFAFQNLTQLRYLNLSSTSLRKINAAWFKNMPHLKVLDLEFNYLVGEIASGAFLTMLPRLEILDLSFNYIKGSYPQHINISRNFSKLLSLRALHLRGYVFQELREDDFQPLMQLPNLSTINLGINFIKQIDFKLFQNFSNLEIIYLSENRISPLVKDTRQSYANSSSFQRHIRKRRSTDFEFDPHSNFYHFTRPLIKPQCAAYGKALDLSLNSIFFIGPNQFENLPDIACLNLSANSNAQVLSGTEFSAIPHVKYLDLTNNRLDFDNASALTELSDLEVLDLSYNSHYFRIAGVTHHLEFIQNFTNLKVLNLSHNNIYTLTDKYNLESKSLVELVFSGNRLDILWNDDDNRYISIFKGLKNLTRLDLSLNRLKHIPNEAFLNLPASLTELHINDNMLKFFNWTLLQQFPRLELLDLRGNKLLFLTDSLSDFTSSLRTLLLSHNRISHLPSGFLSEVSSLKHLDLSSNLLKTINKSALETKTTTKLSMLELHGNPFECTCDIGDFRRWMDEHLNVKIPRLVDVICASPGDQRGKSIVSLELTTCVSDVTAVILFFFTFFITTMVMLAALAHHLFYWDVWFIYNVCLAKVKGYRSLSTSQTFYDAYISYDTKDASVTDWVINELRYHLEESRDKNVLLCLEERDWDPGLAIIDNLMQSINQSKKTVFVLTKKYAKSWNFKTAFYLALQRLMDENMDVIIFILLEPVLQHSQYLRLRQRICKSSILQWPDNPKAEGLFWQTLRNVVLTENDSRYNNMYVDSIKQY
Test: TLR8 inhibition reporter assay (HEK-Blue SEAP)
Conditions: HEK-Blue cells overexpressing human TLR8, stimulated with R848 15.9 μM, 22 hour incubation
Experimental Endpoint: IC50 (nM)

Structure	Endpoint Result
Cc1cc(-c2[nH]c3ccc(OCc4ccc(N5CCOCC5)cc4)cc3c2C(C)C)ccn1	134
Cc1cc(-c2[nH]c3ccc(O[C@H]4CCCN(CC(=O)N(C)C)C4)cc3c2C(C)C)cn(C)c1=O	27.6
Cc1cc(-c2[nH]c3ccc(O[C@H]4CCCN(C(=O)CN(C)C)C4)cc3c2C(C)C)cn2ncnc12	25.2
Cc1cc(-c2[nH]c3ccc(OC4CCN(C)CC4)cc3c2C(C)C)cn2ncnc12	1
Cc1cc(-c2[nH]c3ccc(OCC4CCN(CC(C)(C)O)CC4)cc3c2C(C)C)cn(C)c1=O	14
COc1ccc(-c2[nH]c3ccc(OCC4CCN(Cc5ccccc5)CC4)cc3c2C(C)C)cc1OC	128
Cc1c(-c2[nH]c3ccc(OCC4CN(CC(C)(C)O)C4)cc3c2C(C)C)cn2cnnc2c1C	21.7
Cc1cc(-c2[nH]c3ccc(OC4CCN(CC(C)(C)O)CC4)cc3c2C(C)C)cn2ncnc12	9.2
Cc1cc(-c2[nH]c3ccc(OC4CCN(CC(=O)N(C)C)CC4)cc3c2C(C)C)cc(C)n1	3.2
Cc1c(-c2[nH]c3ccc(OC4CCN(C(=O)CN(C)C)CC4)cc3c2C(C)C)cn2cnnc2c1C	50.2
COc1ccc(-c2[nH]c3ccc(OCC(=O)N4CCC[C@H](N)C4)cc3c2C(C)C)cc1OC	46.9
Cc1cc(-c2[nH]c3ccc(OCC(=O)N4CC5(CCNCC5)C4)cc3c2C(C)C)ccn1	186
Cc1cc(-c2[nH]c3ccc(OCCN4CCCC4)cc3c2C(C)C)ccn1	3.1
Cc1cc(-c2[nH]c3ccc(OCC4CCN(CC(C)(C)O)CC4)cc3c2C(C)C)cn2ncnc12	1.7
Cc1cc(-c2[nH]c3ccc(OC4CCN(C(C)C)CC4)cc3c2C(C)C)cn2ncnc12	1
COc1ccc(-c2[nH]c3ccc(OCC(=O)N4C[C@H]5C[C@@H]4CN5)cc3c2C(C)C)cc1OC	15.8
Cc1c(-c2[nH]c3ccc(OC4CCN(C)CC4)cc3c2C(C)C)cn(C)c(=O)c1Cl	3.4
Cc1cc(-c2[nH]c3ccc(OCC4CCN(C(=O)CN(C)C)CC4)cc3c2C(C)C)cc(C)n1	9.8
COc1ccc(-c2[nH]c3ccc(OCC(=O)N[C@@H]4CCCC[C@H]4N)cc3c2C(C)C)cc1OC	18.7
Cc1cc(-c2[nH]c3ccc(OC4CCN(CCC(F)(F)F)CC4)cc3c2C(C)C)ccn1	3.9
COc1cc(-c2[nH]c3ccc(OC4CCN(CC(=O)N(C)C)CC4)cc3c2C(C)C)cn2ncnc12	2.6
Cc1cc(-c2[nH]c3ccc(OC4CCNCC4)cc3c2C(C)C)cc(C)n1	2.1
Cc1cc(-c2[nH]c3ccc(O[C@H]4CCCN(CC(=O)N(C)C)C4)cc3c2C(C)C)cn2ncnc12	28.2
CNC(=O)CN1CCC(Oc2ccc3[nH]c(-c4cc(C)c5ncnn5c4)c(C(C)C)c3c2)CC1	5.1
CNCC(=O)N1CCC(Oc2ccc3[nH]c(-c4cc(C)nc(C)c4)c(C(C)C)c3c2)CC1	10
Cc1c(-c2[nH]c3ccc(OCC4CCN(C5COC5)CC4)cc3c2C(C)C)cn(C)c(=O)c1C	2.6
Cc1cc(-c2[nH]c3ccc(OCC(=O)N(C)C4CCNCC4)cc3c2C(C)C)ccn1	51.4
COc1cc(-c2[nH]c3ccc(OC4CCN(C(C)C)CC4)cc3c2C(C)C)cn2ncnc12	0.7
COc1ccc(-c2[nH]c3ccc(OCC(=O)NC4CCN(C(C)C)CC4)cc3c2C(C)C)cc1OC	83.2
COc1ccc(-c2[nH]c3ccc(OCC4CCNCC4)cc3c2C(C)C)cc1OC	25.6
Cc1cc(-c2[nH]c3ccc(OCC4CN(C(C)C)C4)cc3c2C(C)C)cn2ncnc12	5.1
Cc1c(-c2[nH]c3ccc(OC4CCN(C)CC4)cc3c2C(C)C)cn2cnnc2c1C	3.3
